Measured Average ALPHA signal at 200 μM (std. dev.), listed per entry for reference.
- Target Or Test System: UniProtKB Q9Y466
- Measurement Protocol: ALPHA screen assay for TLX LBD and coactivator peptide recruitment
- Format: biochemical
- Particulars: Table 3; 200 μM; mean (std. dev.)

The value of Average ALPHA signal at 200 μM (std. dev.) measured for the compound Cc1ccc(CN2CCN(C(=O)c3cccnc3NCCC(C)C)[C@@H](C)C2)cc1 turned out to be 3.89 (0.21)

---

- Target Or Test System: TLX LBD (Homo sapiens (Human), UniProt Q9Y466)
- Sequence (Q9Y466 155-383): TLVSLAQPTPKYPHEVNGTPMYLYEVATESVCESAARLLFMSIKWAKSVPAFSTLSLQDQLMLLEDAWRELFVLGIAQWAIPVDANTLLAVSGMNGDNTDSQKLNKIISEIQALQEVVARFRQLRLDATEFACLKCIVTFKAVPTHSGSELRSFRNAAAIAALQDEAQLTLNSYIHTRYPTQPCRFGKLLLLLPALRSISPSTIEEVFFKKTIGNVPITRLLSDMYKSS
- Measurement Protocol: ALPHA screen assay for TLX LBD and coactivator peptide recruitment
- Type: biochemical
- Particulars: Table 3; 200 μM; mean (std. dev.)
Quantity: Average ALPHA signal at 200 μM (std. dev.)

Take a look at these entries with their results.
>  <Molecule>
CC(C)CNc1ncccc1C(=O)N1CCN(Cc2ccccc2)[C@@H](C)C1

>  <Observed>
1.98 (0.05)

$$$$
>  <Molecule>
CC(C)CCNc1ncccc1C(=O)N1CCN(Cc2c[nH]c3ccccc23)C[C@H]1C

>  <Observed>
1.17 (0.06)

$$$$
>  <Molecule>
CC(C)CCNc1ncccc1C(=O)N1CCN(Cc2ccccc2)[C@@H](C)[C@@H]1CC(=O)O

>  <Observed>
1.16 (0.03)

$$$$
>  <Molecule>
CC(C)CCNc1ncccc1C(=O)N1CCN(Cc2ccccc2)[C@H](C)C1

>  <Observed>
1.97 (0.07)

$$$$

The value of Average ALPHA signal at 200 μM (std. dev.) measured for the molecule CC(C)CCNc1ncccc1C(=O)N1CCN(Cc2cccc(C(=O)O)c2)CC1 turned out to be 1.25 (0.09)

The value of Average ALPHA signal at 200 μM (std. dev.) measured for the molecule COC(=O)c1cccc(CN2CCN(C(=O)c3cccnc3NCCC(C)C)CC2)c1 turned out to be 2.74 (0.08)

The value of Average ALPHA signal at 200 μM (std. dev.) measured for the molecule Cc1cc(C(=O)N2CCN(C(c3ccccc3)c3ccccc3)CC2)nn1C [Compound 30, reference compound] turned out to be 1.93 (0.08)

The value of Average ALPHA signal at 200 μM (std. dev.) measured for the molecule CC(C)CCNc1ncccc1C(=O)N1CCN(Cc2ccccn2)C[C@H]1C turned out to be 0.86 (0.09)

The value of Average ALPHA signal at 200 μM (std. dev.) measured for the molecule COC(=O)C[C@H]1CN(Cc2ccccc2)[C@@H](C)CN1C(=O)c1cccnc1NCCC(C)C turned out to be 2.69 (0.07)

The value of Average ALPHA signal at 200 μM (std. dev.) measured for the molecule COC(=O)C[C@@H]1CN(Cc2ccccc2)[C@H](C)CN1C(=O)c1cccnc1NCCC(C)C turned out to be 2.65 (0.04)

The value of Average ALPHA signal at 200 μM (std. dev.) measured for the molecule CC(C)CCNc1ncccc1C(=O)N1C[C@H](CC(=O)O)N(Cc2ccccc2)[C@H](C)C1 turned out to be 0.97 (0.03)

Provenance of the data: patent US20240067625A1
